B1: tRNA (parent)
chain: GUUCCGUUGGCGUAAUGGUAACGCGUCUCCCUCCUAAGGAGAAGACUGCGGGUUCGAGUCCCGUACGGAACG

- Variants of: B1
- ASSAY_PROCEDURE: yeast fitness relative to wild type (ratio to wild type); higher = fitter; tRNA-Arg(CCU), competitive growth, 37 C, YPD
This sample holds only a part of the variants without activity.
yeast fitness below 0.6 gives criterion not met; yeast fitness at or above it gives criterion met.

>>> class_label("C11G C24G C62U")
"criterion not met"
>>> class_label("U3C G18C C30U A36U C55A")
"criterion not met"
>>> class_label("C11G A70C")
"criterion met"
>>> class_label("G17A C27G C61U")
"criterion not met"
>>> class_label("C5G C33A C34G G50A")
"criterion not met"
>>> class_label("G9C U13C C31G A65U")
"criterion not met"
>>> class_label("U28C U32C C62A")
"criterion not met"
>>> class_label("G6A C29A G67C")
"criterion not met"
>>> class_label("U7G C27G A40U G58C")
"criterion not met"
>>> class_label("C4G C49G")
"criterion met"
>>> class_label("C27G C30U G52C")
"criterion not met"
>>> class_label("A15C U16A")
"criterion met"
>>> class_label("U3C C29U G58C")
"criterion not met"
>>> class_label("A15G A40G A65G")
"criterion met"
>>> class_label("C4A C5U U19A C66A")
"criterion not met"
>>> class_label("C29U G38A G48C C62G")
"criterion not met"
>>> class_label("A40G A43U")
"criterion met"
>>> class_label("U35C G44C")
"criterion met"
>>> class_label("C31U G41C")
"criterion met"
>>> class_label("C24A U35G G52A U64A")
"criterion not met"
>>> class_label("C33G G48A")
"criterion met"
>>> class_label("U2A G10A U35C")
"criterion not met"
>>> class_label("G6A G50A G58A")
"criterion met"
>>> class_label("C30G U64A")
"criterion met"
>>> class_label("C24U G48C")
"criterion met"
>>> class_label("C4U U7A C49U")
"criterion not met"
>>> class_label("A14U U47A G56A")
"criterion not met"
>>> class_label("U16C C34G G44A A65U")
"criterion not met"
>>> class_label("A20G U35A A37G A43U A45C")
"criterion not met"
>>> class_label("C4A C11U")
"criterion met"
>>> class_label("C11G A14U A36U G38C")
"criterion not met"
>>> class_label("U3C C11U C61G A65C")
"criterion not met"
>>> class_label("U7C G41A A42C G50C A65C")
"criterion not met"
>>> class_label("C5U C27G U28A C30G C31U G67A")
"criterion not met"
>>> class_label("U13G C24U A36G U47C G50A")
"criterion not met"
>>> class_label("U3G C5G C11U C29U U32C")
"criterion not met"
>>> class_label("A15U A20G C27U G48C A70U")
"criterion not met"
>>> class_label("G6A U8C G10A U19C G41A U47C")
"criterion not met"
>>> class_label("A14U A45U G58C")
"criterion not met"
>>> class_label("U2C U3A A40C")
"criterion not met"
>>> class_label("G10C C22U A70G")
"criterion not met"
>>> class_label("U54G U59C A69U")
"criterion not met"
>>> class_label("C31G A57U A69C A70G")
"criterion not met"
>>> class_label("A45C C49U G56A")
"criterion met"
>>> class_label("C5U C22G C24G C31U")
"criterion not met"
>>> class_label("C11G A15U C22U U32C A42G")
"criterion not met"
>>> class_label("C4A U54G A65U")
"criterion not met"
>>> class_label("C11A C31A G44C A65C")
"criterion not met"
>>> class_label("A21U A42U")
"criterion met"
>>> class_label("C27A A42C C46U C62U")
"criterion not met"
>>> class_label("C11G C22U G68C")
"criterion met"
>>> class_label("C30U A45C G52C")
"criterion not met"
>>> class_label("C22G C34A U53C")
"criterion not met"
>>> class_label("U2G C4U C33G A37U U64G")
"criterion not met"
>>> class_label("A20U A40G A57G")
"criterion met"
>>> class_label("C5U A15U C31U A43U C49U")
"criterion not met"
>>> class_label("C4U G10C G48C G63C G67A")
"criterion not met"
>>> class_label("G6A")
"criterion met"
>>> class_label("C5G G10A C11G U16G C33G C66U")
"criterion not met"
>>> class_label("C11A A21C C31A C46G")
"criterion not met"
>>> class_label("G6C U7C C34G C55U")
"criterion not met"
>>> class_label("U32G G39C C49U G52C")
"criterion not met"
>>> class_label("C24A U32A G50C")
"criterion not met"
>>> class_label("G23A C29G U32C A45U C60G C61U A69G")
"criterion not met"
>>> class_label("C34U C55G")
"criterion not met"
>>> class_label("A20C C34U G52A")
"criterion not met"
>>> class_label("A14U U28A G56C G67U")
"criterion not met"
>>> class_label("C5A U7C U32A G52C C55U C66U")
"criterion not met"
>>> class_label("A14G A43U")
"criterion met"
>>> class_label("C22G G25C")
"criterion met"
>>> class_label("C33G U47A")
"criterion not met"
>>> class_label("A21G G23A C27U")
"criterion met"
>>> class_label("C31G A43C")
"criterion met"
>>> class_label("G9C A37U")
"criterion met"
>>> class_label("U7A C22A C31G U32G A42G G52A C62A")
"criterion not met"
>>> class_label("U16C U35G G48C C66U")
"criterion not met"
>>> class_label("U8G U35G A70C")
"criterion not met"
>>> class_label("G6A C11U G23A C46A C55A")
"criterion not met"
>>> class_label("G6A U26C C62G")
"criterion not met"
>>> class_label("C24G C31U C55A")
"criterion not met"
>>> class_label("C4U G12A A42U")
"criterion not met"
>>> class_label("U7G A14C A20G C22U C49G G56C A70G")
"criterion not met"
>>> class_label("G6A C24U A40U A45U")
"criterion not met"
>>> class_label("G50A C60G")
"criterion met"
>>> class_label("A14C C33G A42C G48A C60U")
"criterion not met"
